test: Aqueous stability assessed as decomposition time at pH 7.4; type: physicochemical; conditions: buffer
MEASUREMENT NAME: Time (h)
Answer format: numeric, h implied, no suffix.

Worked cases, Time given:
>>> assay_result("CC1(C)N(O)C(CCl)=[N+]([O-])C1(C)C")
18
>>> assay_result("CC1(C)N(O)C(c2ccco2)=[N+]([O-])C1(C)C")
30
>>> assay_result("CC1(C)N(O)C(c2cccnc2)=[N+]([O-])C1(C)C")
30

Prompt: Bench note: what Time did CC1(C)N(O)C(C(=O)O)=[N+]([O-])C1(C)C show?
Response: 18

Prompt: Another molecule: CC1(C)N(O)C=[N+]([O-])C1(C)C
Response: 18

---

test system: Blood; assay: Inhibition of 1 uM platelet activating factor-induced platelet aggregation in rabbit blood; assay type: functional, Oryctolagus cuniculus
Where a SMILES comes first, the peptide text is derived from it. The star is where a group is joined. X2 = CC1(C)N(O)C(c2ccc(OCC(=O)*)cc2)=[N+]([O-])C1(C)C; X1 = CC1(C)N(O)C(c2ccc(OCCN*)cc2)=[N+]([O-])C1(C)C
Readings of inhibition (INH) for the listed compounds
Answer format: numeric, % implied, no suffix.

Worked cases, inhibition (INH) given:
>>> assay_result("CC1(C)N(O)C(c2ccc(OCC(=O)O)cc2)=[N+]([O-])C1(C)C")
51.4
>>> assay_result("CC1(C)N(O)C(c2ccc(OCCNC(=O)C[C@H](NC(=O)CNC(=O)[C@@H](N)CCCNC(=N)N)C(=O)N[C@@H](CO)C(=O)O)cc2)=[N+]([O-])C1(C)C (H-RGD(X1)S-OH)")
34.33
>>> assay_result("CC(C)[C@H](NC(=O)[C@H](CC(=O)O)NC(=O)CNC(=O)[C@@H](N)CCCNC(=N)N)C(=O)O (H-RGDV-OH)")
34.84
>>> assay_result("CC1(C)N(O)C(c2ccc(O)cc2)=[N+]([O-])C1(C)C")
52.45
>>> assay_result("N=C(N)NCCC[C@H](N)C(=O)NCC(=O)N[C@@H](CC(=O)O)C(=O)N[C@@H](CO)C(=O)O")
36.47

# next compound below
Prompt: Bench note: what inhibition (INH) did CC(C)[C@H](NC(=O)[C@H](CC(=O)O)NC(=O)CNC(=O)[C@@H](N)CCCNC(=N)NC(=O)COc1ccc(C2=[N+]([O-])C(C)(C)C(C)(C)N2O)cc1)C(=O)O (H-R(X2)GDV-OH) show?
Response: 32.8

---

Readings of inhibition for the listed molecules
system: Aorta; test: Nitric oxide radical scavenging activity in rat aortic strip assessed as inhibition of acetylcholine-induced vasorelaxation at 10 uM; format: functional, tissue-based
Write the quantity with the unit trailing the number.

Prompt: Bench note: what inhibition did CC1(C)N(O)C(c2ccc(OCC(=O)O)cc2)=[N+]([O-])C1(C)C show?
Response: 72.4%

---

system: Blood; assay: Inhibition of 0.1 uM platelet activating factor-induced platelet aggregation in rabbit blood; type: functional, Oryctolagus cuniculus
Where a SMILES comes first, the peptide text is derived from it. The star is where a group is joined. X2 = CC1(C)N(O)C(c2ccc(OCC(=O)*)cc2)=[N+]([O-])C1(C)C; X1 = CC1(C)N(O)C(c2ccc(OCCN*)cc2)=[N+]([O-])C1(C)C
MEASUREMENT NAME: inhibition (INH) (%)
Answer format: numeric, % implied, no suffix.

>>> assay_result("N=C(N)NCCC[C@H](N)C(=O)NCC(=O)N[C@@H](CC(=O)O)C(=O)N[C@@H](CO)C(=O)O")
22.03
>>> assay_result("CC1(C)N(O)C(c2ccc(OCC(=O)O)cc2)=[N+]([O-])C1(C)C")
52.45
>>> assay_result("CC(C)[C@H](NC(=O)[C@H](CC(=O)O)NC(=O)CNC(=O)[C@@H](N)CCCNC(=N)NC(=O)COc1ccc(C2=[N+]([O-])C(C)(C)C(C)(C)N2O)cc1)C(=O)O (H-R(X2)GDV-OH)")
19.88
>>> assay_result("CC1(C)N(O)C(c2ccc(O)cc2)=[N+]([O-])C1(C)C")
53.04
>>> assay_result("CC(C)[C@H](NC(=O)[C@H](CC(=O)O)NC(=O)CNC(=O)[C@@H](N)CCCNC(=N)N)C(=O)O (H-RGDV-OH)")
20.01

# next compound below
Prompt: Bench note: what inhibition (INH) did CC1(C)N(O)C(c2ccc(OCCNC(=O)C[C@H](NC(=O)CNC(=O)[C@@H](N)CCCNC(=N)N)C(=O)N[C@@H](CO)C(=O)O)cc2)=[N+]([O-])C1(C)C (H-RGD(X1)S-OH) show?
Response: 21.52

---

test: Aqueous stability assessed as decomposition time at pH 2.0; assay type: physicochemical; settings: buffer
Readings of Time for the listed molecules
Answer format: numeric, h implied, no suffix.

Worked cases, Time given:
>>> assay_result("CC1(C)N(O)C(CCl)=[N+]([O-])C1(C)C")
2
>>> assay_result("CC1(C)N(O)C(c2ccco2)=[N+]([O-])C1(C)C")
15
>>> assay_result("CC1(C)N(O)C=[N+]([O-])C1(C)C")
2
>>> assay_result("CC1(C)N(O)C(C(=O)O)=[N+]([O-])C1(C)C")
2

# next molecule below
Prompt: Bench note: what Time did CC1(C)N(O)C(c2cccnc2)=[N+]([O-])C1(C)C show?
Response: 15

---

system: Blood; assay: Inhibition of 10 uM adenosine diphosphate-induced platelet aggregation in rabbit blood; format: functional, Oryctolagus cuniculus
Where a SMILES comes first, the peptide text is derived from it. The star is where a group is joined. X2 = CC1(C)N(O)C(c2ccc(OCC(=O)*)cc2)=[N+]([O-])C1(C)C; X1 = CC1(C)N(O)C(c2ccc(OCCN*)cc2)=[N+]([O-])C1(C)C
MEASUREMENT NAME: inhibition (INH) (%)
Answer format: numeric, % implied, no suffix.

Worked cases, inhibition (INH) given:
>>> assay_result("CC(C)[C@H](NC(=O)[C@H](CC(=O)O)NC(=O)CNC(=O)[C@@H](N)CCCNC(=N)N)C(=O)O (H-RGDV-OH)")
49.78
>>> assay_result("CC1(C)N(O)C(c2ccc(OCC(=O)O)cc2)=[N+]([O-])C1(C)C")
51.98
>>> assay_result("N=C(N)NCCC[C@H](N)C(=O)NCC(=O)N[C@@H](CC(=O)O)C(=O)N[C@@H](CO)C(=O)O")
51.5
>>> assay_result("CC1(C)N(O)C(c2ccc(OCCNC(=O)C[C@H](NC(=O)CNC(=O)[C@@H](N)CCCNC(=N)N)C(=O)N[C@@H](CO)C(=O)O)cc2)=[N+]([O-])C1(C)C (H-RGD(X1)S-OH)")
50
>>> assay_result("CC(C)[C@H](NC(=O)[C@H](CC(=O)O)NC(=O)CNC(=O)[C@@H](N)CCCNC(=N)NC(=O)COc1ccc(C2=[N+]([O-])C(C)(C)C(C)(C)N2O)cc1)C(=O)O (H-R(X2)GDV-OH)")
50.2

# next compound below
Prompt: Bench note: what inhibition (INH) did CC1(C)N(O)C(c2ccc(O)cc2)=[N+]([O-])C1(C)C show?
Response: 49.28

---

Readings of pEC50 for the listed compounds
test system: PC-12; experiment: Radical scavenging activity in rat PC12 cells assessed as inhibition of hydrogen peroxide radical-induced cell damage by MTT assay; type: functional, cell-based
Note on pEC50: it is the negative log10 of concentration, concentration in mol/L.

Prompt: Form entry - test system: PC-12; read-out: pEC50; compound: CC(C)(C)OC(=O)N[C@@H](CCC(=O)NCCOc1ccc(C2=[N+]([O-])C(C)(C)C(C)(C)N2O)cc1)C(=O)O
Response: 4.30

---

test system: PC-12; experiment: Radical scavenging activity in rat PC12 cells assessed as inhibition of hydrogen peroxide radical-induced cell damage by MTT assay; assay type: functional, cell-based
Where a SMILES comes first, the peptide text is derived from it. The star is where a group is joined. X2 = CC1(C)N(O)C(c2ccc(OCC(=O)*)cc2)=[N+]([O-])C1(C)C
MEASUREMENT NAME: EC50 (µM)
Answer format: numeric, µM implied, no suffix.

Prompt: Bench note: what EC50 did CC1(C)N(O)C(c2ccc(OCCNC(=O)CC[C@H](N)C(=O)N[C@@H](CS)C(=O)NCC(=O)O)cc2)=[N+]([O-])C1(C)C show?
Response: 47

Prompt: Another compound: CC(C)[C@H](NC(=O)[C@H](CC(=O)O)NC(=O)CNC(=O)[C@@H](N)CCCNC(=N)NC(=O)COc1ccc(C2=[N+]([O-])C(C)(C)C(C)(C)N2O)cc1)C(=O)O (H-R(X2)GDV-OH)
Response: 32.8

Prompt: Another compound: CC1(C)N(O)C(c2ccc(OCC(=O)N[C@@H](CCCNC(=N)N)C(=O)O)cc2)=[N+]([O-])C1(C)C
Response: 32.1

Value source: ChEMBL document CHEMBL1157169
